target or system: Adenosylhomocysteinase (Bos taurus)
assay name: Evaluated for the 50% inhibition of bovine-liver S-Adenosyl-homocysteine (AdoHcy) hydrolase
Recorded pIC50, one value per entry.
pIC50 (log units): -log10 of the concentration in mol/L.

Here are 3 molecules together with their reported answers.
molecule	pIC50
CC(C)=CCn1cnc2c(N)ncnc21	6.03
Nc1ncnc2c1ncn2C/C=C/C(O)CO (centres undefined)	6.02
Nc1ncnc2c1ncn2CC#CCO	6.00

# input So what does the record say about pIC50 for Nc1nccc2c1ncn2C/C=C/CO ?
# output 5.91

* * *

target or system: Adenosylhomocysteinase (Bos taurus)
assay name: Evaluated for the 50% inhibition of bovine-liver S-Adenosyl-homocysteine (AdoHcy) hydrolase
Quick list: pKi per entry.
Remember, pKi is on a log scale: it is -log10 of the molar concentration.

Example results:
Nc1nccc2c1ncn2C/C=C\CO 6.70
Nc1ncnc2c1ncn2CC=C(CO)CO 6.96
Nc1ncnc2c1ncn2C/C=C/CO 6.48

# input Value lookup for pKi; key = Nc1nccc2c1ncn2CC=C(CO)CO
# output 6.78

# input Now the same for C/C(=C/Cn1cnc2c(N)ncnc21)CO
# output 6.77

* * *

target or system: Adenosylhomocysteinase (Bos taurus)
assay name: Evaluated for the 50% inhibition of bovine-liver S-Adenosyl-homocysteine (AdoHcy) hydrolase
Known pKi of a selection of molecules
// pKi: -log10(molar conc.)

Example cases with answers are listed next.
Nc1ncnc2c1ncn2C/C=C\CO 6.90
Nc1nccc2c1ncn2C/C=C\[C@@H](O)CO 7.05
Nc1nccc2c1ncn2CC#CCO 6.80
C/C(=C\Cn1cnc2c(N)ncnc21)CO 6.30

Query molecule follows.
# input # get_value(readout='pKi', item= Nc1ncnc2c1ncn2C/C=C\[C@@H](O)CO )
# output 6.70

Sourced from BindingDB's records for doi:10.1021/jm00117a011
